- Tested on: MCF7
- procedure-summary: Antiproliferative activity against human MCF7 cells after 24 and 72 hrs by MTT assay
- Type: functional, cell-based
Hi there, I'd appreciate the recorded IC50 for every entry that follows.
Quick note: number first, unit second.

// fetch MCF7 IC50 for CC(=O)O[C@H]1CC[C@]2(C)[C@H]3CC=C4[C@@H]5CC(C)(C)CC[C@]5(C(=O)O)CC[C@@]4(C)[C@]3(C)CC[C@H]2[C@]1(C)/C=N/NC(N)=S 7.5 µM

Param readout= IC50; system= MCF7; entry= CC1(C)CC[C@]2(C(=O)OCc3ccccc3)CC[C@]3(C)C(=CC[C@@H]4[C@@]5(C)CC[C@H](O)[C@@](C)(/C=N/O)[C@@H]5CC[C@]43C)[C@@H]2C1 ; returns value. 6.67 µM

Form: Entry = CC(=O)O[C@H]1CC[C@]2(C)[C@H]3CC=C4[C@@H]5CC(C)(C)CC[C@]5(C(=O)OCc5ccccc5)CC[C@@]4(C)[C@]3(C)CC[C@H]2[C@]1(C)C=O | System = MCF7 | IC50 = ____ 65.2 µM

Observed IC50 on MCF7 for CC1(C)CC[C@]2(C(=O)O)CC[C@]3(C)C(=CC[C@@H]4[C@@]5(C)CC[C@H](O)[C@@](C)(C=O)[C@@H]5CC[C@]43C)[C@@H]2C1 , please. 9.02 µM

Can you look up IC50 on MCF7 for CC(=O)O[C@H]1CC[C@]2(C)[C@H]3CC=C4[C@@H]5CC(C)(C)CC[C@]5(C(=O)O)CC[C@@]4(C)[C@]3(C)CC[C@H]2[C@]1(C)/C=N\O ? 10.8 µM

So what IC50 did CC(=O)O[C@H]1CC[C@]2(C)[C@H]3CC=C4[C@@H]5CC(C)(C)CC[C@]5(C(=O)OCc5ccccc5)CC[C@@]4(C)[C@]3(C)CC[C@H]2[C@]1(C)/C=N/O get with MCF7? 9.9 µM

###

- System: HL-60
- procedure-summary: Induction of necrosis in human HL60 cells at 20 uM after 48 hrs by Hoechst 33258/propidium iodide staining based phase contrast microscopic analysis
- Format: functional
Label Condition met when Activity < 50%; otherwise Condition not met.

Say whether its Activity is strictly beneath 50%. Entry: CC(=O)O[C@H]1CC[C@]2(C)[C@H]3CC=C4[C@@H]5CC(C)(C)CC[C@]5(C(=O)O)CC[C@@]4(C)[C@]3(C)CC[C@H]2[C@]1(C)C=O Condition met

Lab note: Activity threshold 50%. Does this molecule come in strictly under it? CC(=O)O[C@H]1CC[C@]2(C)[C@H]3CC=C4[C@@H]5CC(C)(C)CC[C@]5(C(=O)O)CC[C@@]4(C)[C@]3(C)CC[C@H]2[C@]1(C)/C=N\O Condition not met

Does the reported Activity of the following molecule sit strictly below 50%? CC1(C)CC[C@]2(C(=O)OCc3ccccc3)CC[C@]3(C)C(=CC[C@@H]4[C@@]5(C)CC[C@H](O)[C@@](C)(/C=N/NC(N)=S)[C@@H]5CC[C@]43C)[C@@H]2C1 Condition not met

For this molecule, is Activity lower than 50%? CC1(C)CC[C@]2(C(=O)OCc3ccccc3)CC[C@]3(C)C(=CC[C@@H]4[C@@]5(C)CC[C@H](O)[C@@](C)(C=O)[C@@H]5CC[C@]43C)[C@@H]2C1 Condition met

API: query returns whether the molecule falls strictly under 50% in Activity. Query: CC1(C)CC[C@]2(C(=O)OCc3ccccc3)CC[C@]3(C)C(=CC[C@@H]4[C@@]5(C)CC[C@H](O)[C@@](C)(/C=N/O)[C@@H]5CC[C@]43C)[C@@H]2C1 Condition met

Data origin, for the record: ChEMBL document CHEMBL3297654
